target: Pol32 PIP peptide; assay: SPR analysis of PCNA binding to PIP peptide; set-up: species or system yeast; conditions: PCNA immobilized, peptide 5-5,000 nM, ProteOn XPR36; read-out: Binding affinity for Pol32 PIP peptide (SPR)
EXPERIMENTAL READOUT: Kd (nM)
Write the number in nM without appending the unit.

IN: # query: Kd of entry POL30: wild-type yeast PCNA (POL30), IDCL sequence DIDADFLKIEEL
OUT: 360

Data credit: paper PMC2953525
